# maps each entry to its IC50
Biological target: UniProt:P35348
Sequence (P35348 whole entry): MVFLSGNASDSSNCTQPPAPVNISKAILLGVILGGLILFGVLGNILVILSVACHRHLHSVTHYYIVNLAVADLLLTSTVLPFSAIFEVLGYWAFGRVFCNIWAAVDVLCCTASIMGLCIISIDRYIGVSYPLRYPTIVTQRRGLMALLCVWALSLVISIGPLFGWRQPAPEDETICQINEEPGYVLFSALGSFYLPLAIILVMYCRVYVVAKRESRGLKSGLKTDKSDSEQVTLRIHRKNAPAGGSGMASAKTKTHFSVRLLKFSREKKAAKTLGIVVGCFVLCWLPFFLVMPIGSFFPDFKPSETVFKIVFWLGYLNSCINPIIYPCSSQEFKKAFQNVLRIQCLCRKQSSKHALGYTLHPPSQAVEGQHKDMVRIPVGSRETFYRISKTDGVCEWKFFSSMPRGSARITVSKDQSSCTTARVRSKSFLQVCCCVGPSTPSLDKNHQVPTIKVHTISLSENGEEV
Experiment: Binding affinity at human Alpha-1A adrenergic receptor in CHO cells uby [3H]prazosin (0.25 nM) displacement.
The response must be a number in nM with no trailing unit.

Fill blank: measured IC50 of the compound `Cc1nc2c(Cl)cc(C(F)(F)F)cn2c(=O)c1CCN1CCc2oc3ccccc3c2C1` is ____.
5890

Now consider `Cc1nc2c(Cl)cc(Cl)cn2c(=O)c1CCN1CCc2oc3ccccc3c2C1` .
2570

Now consider `O=c1c(CCN2CCc3oc4ccccc4c3C2)c(Cc2ccccc2)nc2ccccn12` .
204

Now consider `Cc1nc2ccccn2c(=O)c1CCN1CCc2oc3c(Cl)cccc3c2C1` .
282

Now consider `Cc1ccn2c(=O)c(CCN3CCc4oc5ccccc5c4C3)c(C)nc2c1` .
112

Now consider `Cc1nc2c(O)cccn2c(=O)c1CCN1CCc2oc3ccccc3c2C1` .
245

Others:
Fill blank: measured IC50 of the compound `Cc1nc2ccc(I)cn2c(=O)c1CCN1CCc2oc3ccccc3c2C1` is ____.
479

Now consider `COc1cc2nc(C)c(CCN3CCc4oc5ccccc5c4C3)c(=O)n2cc1OC` .
5250

Now consider `Cc1nc2ccccn2c(=O)c1CCCN1CCc2oc3ccccc3c2C1` .
813

Now consider `Cc1nc2ccc(Br)cn2c(=O)c1CCN1CCc2oc3ccccc3c2C1` .
891

* * *

system: Rattus norvegicus; test: Inhibition of Xylazine (15 mg/kg i.v.) induced loss of righting reflex in rats following i.v. administration.; assay type: functional; design: unit not given here
quantity-kind: Activity
Give your answer as a number; write no unit.

These recorded examples may help you get a feel for the data.
Fill blank: measured Activity of the compound `Cc1nc2ccc(Br)cn2c(=O)c1CCN1CCc2oc3ccccc3c2C1` is ____.
0.16

Now consider `Cc1nc2c(O)cccn2c(=O)c1CCN1CCc2oc3ccccc3c2C1` .
5

Now consider `Cc1nc2ccccn2c(=O)c1CCN1CCc2oc3ccc(Cl)cc3c2C1` .
10

Now consider CN1CCN2c3ncccc3Cc3ccccc3C2C1 (stereo not given) .
2.5

Now consider `Cc1nc2ccccn2c(=O)c1CCN1CCc2oc3ccccc3c2C1` .
0.04

Others:
Fill blank: measured Activity of the compound `Cc1nc2ccc(Cl)cn2c(=O)c1CCN1CCc2oc3ccccc3c2C1` is ____.
0.04

Now consider c1ccc2c(c1)OCC(C1=NCCN1)O2 (stereo not given) .
0.63

Now consider `Cc1nc2ccccn2c(=O)c1CCN1CCc2oc3c(Cl)cccc3c2C1` .
2.5

Now consider `Cc1nc2ccc(I)cn2c(=O)c1CCN1CCc2oc3ccccc3c2C1` .
10

Now consider `Cc1nc2ccccn2c(=O)c1CCN1CCc2sc3ccccc3c2C1` .
2.5

This collection of values is drawn from ChEMBL document CHEMBL1132860.
